Would you mind telling me the reported MFI of each entry?
biological target: T1, human TMEM106B (human, UniProt Q9NUM4 2-274); assay: FACS U251
T1 construct: full-length, transiently expressed on HEK293 cells, or natively expressed on HeLa, U251 and A549 cells (the cell is named under assay); also the source of the Pepscan peptides; also called huTMEM106B; huTMEM
# include the unit after the value

Known MFI results, listed for orientation:
>  <BINDER>
TM-25 (antibody, V domains shown) VH: EVQLVESGGDLVKPGGSLRLSCAASGFTFSGYGMSWIRQTPDKRLEWVATISSGGRYTVYPDSVKGRFTMSRDNVKNTLYLQMSSLKSEDTALYYCARDNFYSYAMDYWGLGTSVTVSA VL: DIVMTQAAFSNPVTLGTSASISCRSSKSLLHSNGITYLFWYLQKPGQSPQLLIYQMSNLASGVPDRFSSSGSGTDFTLRISRVEAEDVGVYYCAQNLELWTFGGGTKLEIK

>  <MFI>
1110 MFI

$$$$
>  <BINDER>
TM-42 (antibody, V domains shown) VH: QVQLQQSGAELAKPGASVKLSCKASGYTFTNYWMHWVKKRPGQGLEWIGYINPSSGYTKYNQKFKDKATLTADKSSNTAYMQLSSLTYEDSAVYYCTREGGSISDWYFDVWGTGTTVTVSS VL: DIVMTQAAPSLPVTPGESVSISCRSSKSLLHSNGNTYLYWFLQRPGQSPQLLIYRMSNLASGVPDRFSGSGSGTAFTLRISRVEAEDVGVYYCMQHLEYPYTFGGGTKLEIK

>  <MFI>
326 MFI

$$$$

// switching to the query binder
Would you kindly share the measured MFI for TM-8 (antibody, V domains shown, mouse IgG (hybridoma)) VH: QIQLVQSGPELKKPGETVKISCKASGYTFTDYPMHWVKQAPGKGFKWMGVIYTDTGEPKYAEVFKGRFAFSLETSASTAYLQINNLKNEDTATYFCVRRLAYWGQGTLVTVSA VL: DIKMTQSPSSMYASLGERVTITCKASQDINSYLSWFQQKPGKSPKTLIFRANRLVDGVPSRFSGSGSGQDYSLTISSLEYEDMGIYYCLQYDEFPLTFGAGTKLEMK ?
304 MFI
